- Tested on: N87 cells
- Measurement Protocol: In Vivo Models - Inhibition of Tumor Growth, N87
- Condition Label: Mus musculus, po, 720 h, 100 mg/kg, oral daily for 30 days, athymic mice; read-out: percent inhibition N87
Assay Endpoint: inhibition in vivo at 100 mg/kg (%)
Write down the numeric answer in % and omit the unit.

Example entries begin here.
> print(dat)
                                   compound                   assay.endpoint  observed
1  CN(C)c1cc(NC(=O)c2sc3ncnc4c3c2NC(=O)N4c2ccc(Oc3ccccc3)cc2)ccc1CN1CCOCC1 [Cpd 257]  inhibition in vivo at 100 mg/kg      71.2
2  O=C(Nc1ccc(CN2CCC(F)CC2)cc1)c1sc2ncnc3c2c1NC(=O)N3c1ccc(Oc2ccccc2)cc1 [Cpd 250]  inhibition in vivo at 100 mg/kg      68.9

Read the next record carefully.
inhibition in vivo at 100 mg/kg in this record for O=C(Nc1ccc(CN2CCOCC2)c(O)c1)c1sc2ncnc3c2c1NC(=O)N3c1ccc(Oc2ccccc2)cc1 [Cpd 262] : 70.5

* * *

- Target Entity: HER-2 (Homo sapiens, UniProt P04626)
- Construct: His6 with thrombin site (N); purchased Proqinase (Freiburg, Germany)
- Sequence (P04626 679-1255): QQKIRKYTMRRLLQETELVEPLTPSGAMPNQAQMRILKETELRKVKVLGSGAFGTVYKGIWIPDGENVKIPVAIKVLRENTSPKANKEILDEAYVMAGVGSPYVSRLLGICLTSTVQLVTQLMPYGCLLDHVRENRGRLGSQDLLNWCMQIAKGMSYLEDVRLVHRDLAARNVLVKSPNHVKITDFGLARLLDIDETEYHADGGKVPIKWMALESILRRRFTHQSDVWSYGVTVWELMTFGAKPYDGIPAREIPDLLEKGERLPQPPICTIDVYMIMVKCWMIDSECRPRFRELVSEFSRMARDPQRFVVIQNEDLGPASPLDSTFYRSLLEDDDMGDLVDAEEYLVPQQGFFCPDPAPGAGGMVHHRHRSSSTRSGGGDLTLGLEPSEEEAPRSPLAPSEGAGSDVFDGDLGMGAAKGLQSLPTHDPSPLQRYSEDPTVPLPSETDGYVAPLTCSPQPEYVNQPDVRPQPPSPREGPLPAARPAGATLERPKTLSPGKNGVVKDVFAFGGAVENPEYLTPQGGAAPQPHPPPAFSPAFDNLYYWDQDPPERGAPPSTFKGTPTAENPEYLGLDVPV
- Measurement Protocol: HER-2 Kinase Assay
- Format: biochemical
- Condition Label: test concentration of 1 μM
Output 1.0 for inhibition at 1 µM not less than 40%; output 0.0 otherwise.

Field: example entries. Status: answers known.
> print(dat)
                                   molecule  class.label
1  COc1cc(NC(=O)c2sc3ncnc4c3c2NC(=O)N4c2cc(Cl)ccc2OC)ccc1OCCN1CCCCC1          0.0
2  COc1cc(NC(=O)c2sc3ncnc4c3c2NC(=O)N4c2cccc(Br)c2)ccc1OCCN1CCCCC1          1.0
3  COc1ccc(N2C(=O)Nc3c(C(=O)Nc4ccc(CN5CCOCC5)cc4)sc4ncnc2c34)c(F)c1          1.0
4  COc1ccc(NC(=O)c2sc3ncnc4c3c2NC(=O)N4c2ccc(OCc3ccccn3)c(Cl)c2)cc1OC          1.0
5  Cc1ccc(Oc2ccc(N3C(=O)Nc4c(C(=O)Nc5ccc(CN6CCOCC6)cc5)sc5ncnc3c45)cc2Cl)cn1          1.0

Check the entry COc1cc(NC(=O)c2sc3ncnc4c3c2NC(=O)N4c2cc(OC)c(OC)c(OC)c2Cl)ccc1OCC1CCCCO1 (stereo not shown) : does inhibition at 1 µM equal or exceed 40%? 0.0

Check the entry O=C(Nc1ccc(CCN2CCCCC2)cc1)c1sc2ncnc3c2c1NC(=O)N3c1ccc(Oc2ccccc2)c(Cl)c1 : does inhibition at 1 µM equal or exceed 40%? 1.0

Check the entry COc1cc(N2C(=O)Nc3c(C(=O)O)sc4ncnc2c34)cc(OC)c1OC : does inhibition at 1 µM equal or exceed 40%? 0.0

Check the entry O=C(Nc1ccc(CN2CCCC2)cc1)c1sc2ncnc3c2c1NC(=O)N3c1ccc(F)c(Cl)c1 : does inhibition at 1 µM equal or exceed 40%? 1.0

Check the entry COc1ccc(NC(=O)c2sc3ncnc4c3c2NC(=O)N4c2ccc(Oc3ccccc3)cc2)cc1OC : does inhibition at 1 µM equal or exceed 40%? 1.0

Check the entry O=C(Nc1ccc(CN2CCOCC2)cc1)c1sc2ncnc3c2c1NC(=O)N3c1ccccc1Cl : does inhibition at 1 µM equal or exceed 40%? 1.0

Check the entry O=C(Nc1ccc(CN2CCOCC2)cc1)c1sc2ncnc3c2c1NC(=O)N3c1ccc(Oc2cccc(F)c2)cc1 : does inhibition at 1 µM equal or exceed 40%? 0.0

Check the entry O=C(NCCCO)c1sc2ncnc3c2c1NC(=O)N3c1ccc(Oc2cccc(F)c2)cc1 : does inhibition at 1 µM equal or exceed 40%? 0.0

Check the entry O=C(O)c1sc2ncnc3c2c1NC(=O)N3c1ccc(OCc2ccccn2)c(Cl)c1 : does inhibition at 1 µM equal or exceed 40%? 0.0
